Test system: UACC-62 melanoma
assay_method_text: NCI tumour cell line growth inhibition, 48 h
molecules and their reported TGI

>  <molecule>
COc1ccc2c(c1)/C(=C\c1c(-c3cc(OC)ccc3OC)nc3sc(C)cn13)C(=O)N2C

>  <TGI>
44.5 µM

$$$$
>  <molecule>
COC(=O)C(NC(=O)C(CC(=O)OC(C)(C)C)NC(=O)OC(C)(C)C)C(O)c1ccccc1 (stereo not given)

>  <TGI>
70.8 µM

$$$$
>  <molecule>
COc1cc(/C=C\c2cc(OC)c(OC)c(OC)c2)cc(N/C=C\C(=O)c2ccc(OC(F)(F)F)cc2)c1OC

>  <TGI>
> 100 µM

$$$$
>  <molecule>
CC(=O)C1=C(C)N2C(=NC3=C(CCc4ccccc43)C2c2ccc(F)cc2)S1 (stereo not given)

>  <TGI>
> 100 µM

$$$$
>  <molecule>
COc1ccccc1NC(=S)NN=C(C)c1cccc(C(C)=NNC(=S)Nc2ccccc2OC)n1

>  <TGI>
> 100 µM

$$$$
